# targetOrSystem: Histamine H3 receptor (Rattus norvegicus)
# Sequence (Q9QYN8 whole entry): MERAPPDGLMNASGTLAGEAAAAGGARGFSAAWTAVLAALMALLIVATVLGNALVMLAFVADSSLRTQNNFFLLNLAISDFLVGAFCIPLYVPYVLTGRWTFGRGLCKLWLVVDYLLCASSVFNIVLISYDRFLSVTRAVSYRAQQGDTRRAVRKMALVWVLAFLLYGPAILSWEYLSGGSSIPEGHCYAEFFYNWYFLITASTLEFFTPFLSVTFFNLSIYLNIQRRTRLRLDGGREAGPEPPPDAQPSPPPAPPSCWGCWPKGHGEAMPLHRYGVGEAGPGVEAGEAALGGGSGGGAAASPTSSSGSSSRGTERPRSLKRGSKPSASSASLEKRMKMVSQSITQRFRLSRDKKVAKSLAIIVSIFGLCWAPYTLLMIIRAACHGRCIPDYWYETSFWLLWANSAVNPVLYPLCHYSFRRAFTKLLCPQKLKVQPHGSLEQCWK
Categorized via Ki: low: < 4 nM; moderate: ≥ 4 nM and < 30 nM; high: ≥ 30 nM

For orientation, consider the following solved cases.
N[C@@H](C(=O)N1CCN(CCCOc2ccc(C(=O)C3CC3)cc2)CC1)c1ccccc1
moderate
CCCCCC(=O)c1ccc(OCCCN2CCN(C(=O)[C@@H](CO)NC(=O)OC(C)(C)C)CC2)cc1
low
C[C@@H](CN)C(=O)N1CCN(CCCOc2ccc(C(=O)C3CC3)cc2)CC1
moderate
CC(C)(C)OC(=O)N1CCC[C@@H]1C(=O)N1CCN(CCCOc2ccc(C(=O)C3CC3)cc2)CC1
high
N[C@@H](C(=O)N1CCN(CCCOc2ccc(C(=O)C3CC3)cc2)CC1)C1Cc2ccccc2C1
moderate
C[C@H](N)C(=O)N1CCN(CCCOc2ccc(C(=O)C3CC3)cc2)CC1
moderate

Now for a further compound.
q: Lab note: sort CC(C)(C)[C@@H](N)C(=O)N1CCN(CCCOc2ccc(C(=O)C3CC3)cc2)CC1 into the matching Ki band.
a: high

====

# testDescription: Oral bioavailability in rat (dose 5 mg/kg p.o.)
# Type: ADME, organism-based
# measurementSetup: in vivo
readoutType: bioavailability (%)
The response must be a number in % with no trailing unit.

Use the examples below as a reference point.
C[C@@H](N)C(=O)N1CCN(CCCOc2ccc(C(=O)C3CC3)cc2)CC1
83
NCCC(=O)N1CCN(CCCOc2ccc(C(=O)C3CC3)cc2)CC1
46

Let's switch to this compound now.
q: Quick check: bioavailability of CCCCCC(=O)c1ccc(OCCCN2CCN(C(=O)OCC)CC2)cc1 ?
a: 0

====

# targetOrSystem: Histamine H1 receptor (Homo sapiens)
# Sequence (P35367 whole entry): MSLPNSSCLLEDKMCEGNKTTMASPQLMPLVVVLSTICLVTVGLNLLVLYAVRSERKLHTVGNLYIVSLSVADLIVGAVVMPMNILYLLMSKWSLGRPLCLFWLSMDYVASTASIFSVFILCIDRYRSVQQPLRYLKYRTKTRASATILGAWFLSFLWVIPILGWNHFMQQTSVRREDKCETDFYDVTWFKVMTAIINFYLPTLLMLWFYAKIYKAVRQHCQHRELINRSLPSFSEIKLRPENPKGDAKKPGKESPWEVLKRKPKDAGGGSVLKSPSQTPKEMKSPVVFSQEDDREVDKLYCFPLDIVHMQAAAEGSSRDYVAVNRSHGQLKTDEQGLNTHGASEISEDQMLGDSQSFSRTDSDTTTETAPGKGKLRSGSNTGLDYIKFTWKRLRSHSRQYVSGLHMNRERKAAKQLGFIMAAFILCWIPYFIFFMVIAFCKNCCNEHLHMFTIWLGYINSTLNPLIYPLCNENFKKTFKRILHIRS
# testDescription: Binding affinity towards Histamine H1 receptor of human membranes.
readoutType: pKi
Scale note: pKi = -log10(concentration in M).

Use the examples below as a reference point.
CCCCCC(=O)c1ccc(OCCCN2CCN(C(=O)[C@@H](CC(C)C)NC(=O)OC(C)(C)C)CC2)cc1
5.33
CCCCCC(=O)c1ccc(OCCCN2CCN(C(=O)[C@@H](Cc3ccncc3)NC(=O)OC(C)(C)C)CC2)cc1
4.77
N[C@H](Cc1cc2ccccc2s1)C(=O)N1CCN(CCCOc2ccc(C(=O)C3CC3)cc2)CC1
5.36
C[C@@H](N)C(=O)N1CCN(CCCOc2ccc(C(=O)C3CC3)cc2)CC1
4.16
O=C(c1ccc(OCCCN2CCN(C(=O)C[C@H]3CCCN3)CC2)cc1)C1CC1
4.02

q: Quick check: pKi of N[C@H](Cc1ccc(-c2ccccc2)cc1)C(=O)N1CCN(CCCOc2ccc(C(=O)C3CC3)cc2)CC1 ?
a: 4.92

q: Here is the next compound: O=C(c1ccc(OCCCN2CCN(C(=O)[C@H]3CCCN3)CC2)cc1)C1CC1
a: 4.43

q: Here is the next compound: N[C@H](Cc1ccsc1)C(=O)N1CCN(CCCOc2ccc(C(=O)C3CC3)cc2)CC1
a: 5.01

q: Here is the next compound: CC(C)(C)OC(=O)N[C@H](Cc1ccccc1)C(=O)N1CCN(CCCOc2ccc(C(=O)C3CC3)cc2)CC1
a: 5.26

====

# targetOrSystem: Histamine H1 receptor (Homo sapiens)
Reported Ki values follow for various molecules
The response must be a number in µM with no trailing unit.

N[C@H](Cc1nccs1)C(=O)N1CCN(CCCOc2ccc(C(=O)C3CC3)cc2)CC1
100
C[C@@H](NC(=O)OC(C)(C)C)C(=O)N1CCN(CCCOc2ccc(C(=O)C3CC3)cc2)CC1
8.13

Let's switch to this molecule now.
q: Quick check: Ki of CCCCCC(=O)c1ccc(OCCCN2CCN(C(=O)[C@H](Cc3ccncc3)NC(=O)OC(C)(C)C)CC2)cc1 ?
a: 9.33

====

# targetOrSystem: Histamine H3 receptor (Rattus norvegicus)
The label Condition met is reserved for Ki strictly under 20 nM; Condition not met covers values equal to or above it.

N[C@H](Cc1ccc(O)cc1)C(=O)N1CCN(CCCOc2ccc(C(=O)C3CC3)cc2)CC1
Condition not met

q: Given the entry CCCCCC(=O)c1ccc(OCCCN2CCN(C(=O)[C@@H](N)CC(C)C)CC2)cc1 , would its reported Ki be below 20 nM?
a: Condition not met

q: Here is the next compound: O=C1C[C@H](N2CCN(CCCOc3ccc(C(=O)C4CC4)cc3)CC2)N1
a: Condition not met

q: Here is the next compound: CNCC(=O)N1CCN(CCCOc2ccc(C(=O)C3CC3)cc2)CC1
a: Condition met

q: Here is the next compound: C[C@@H](N)C(=O)N1CCN(CCCOc2ccc(C(=O)C3CC3)cc2)CC1
a: Condition met

q: Here is the next compound: CN[C@@H](C(=O)N1CCN(CCCOc2ccc(C(=O)C3CC3)cc2)CC1)C(C)C
a: Condition not met

q: Here is the next compound: CCCCCC(=O)c1ccc(OCCCN2CCN(C(=O)[C@H](N)CO)CC2)cc1
a: Condition met

q: Here is the next compound: O=C(c1ccc(OCCCN2CCN(C(=O)[C@H]3CCN3)CC2)cc1)C1CC1
a: Condition met

q: Here is the next compound: CCC[C@@H](N)C(=O)N1CCN(CCCOc2ccc(C(=O)C3CC3)cc2)CC1
a: Condition met

====

Form: system (UniProt Q9QYN8), quantity (pKi), values below.
Scale note: pKi = -log10(concentration in M).

q: Quick check: pKi of N[C@H](Cc1ccsc1)C(=O)N1CCN(CCCOc2ccc(C(=O)C3CC3)cc2)CC1 ?
a: 7.64

====

Form: system (Histamine H3 receptor (Rattus norvegicus, UniProt Q9QYN8)), quantity (pKi), values below.
Scale note: pKi = -log10(concentration in M).

Use the examples below as a reference point.
CCCCCC(=O)c1ccc(OCCCN2CCN(C(=O)[C@H](Cc3ccncc3)NC(=O)OC(C)(C)C)CC2)cc1
7.27
CCCCCC(=O)c1ccc(OCCCN2CCN(C(=O)[C@@H](C)N)CC2)cc1
8.72
CCCCCC(=O)c1ccc(OCCCN2CCN(C(=O)[C@@H](C)NC(=O)OC(C)(C)C)CC2)cc1
8.91

q: Quick check: pKi of N[C@H](Cc1nccs1)C(=O)N1CCN(CCCOc2ccc(C(=O)C3CC3)cc2)CC1 ?
a: 8.24
